For each of the compounds below, state its growth inhibition.
assay: NCI Yeast Anticancer Drug Screen. Data for the mec2-1 strain (AID 157); conditions: S. cerevisiae mec2-1 strain, at 1.2 µM, active compounds read high
Compounds without any hit were thinned out: in the full panel of roughly 79,000, 15% have a hit.
One number for each entry, in %.

Consider the reported growth inhibition for these compounds:
Look up growth inhibition for this compound: "CNCC(C)CNC"
-12

Likewise for "CC(C)(N=Nc1ccc(Cl)cc1)[N+](=O)[O-]" ?
-1

Likewise for "COc1c2c(c3c(c1CCC(=O)O)OC(C)(C)C=C3)OC(C)(C)C=C2" ?
-2

Likewise for "CCOC(=O)Nc1ccc(C)c(NC(=O)OCC)c1" ?
4

Likewise for "O=C(O)c1c2ccc(Cl)cc2nc2[nH]c(=O)[nH]c(=O)c12" ?
-63

As a next step, examine the compound that follows.
Look up growth inhibition for this compound: "C[N+](C)([O-])CCCNc1c2ccccc2nc2cccc([N+](=O)[O-])c12"
3
